Hello, the source for this data is PubChem BioAssay, in case you need it.

# MEASUREMENT_TARGET: Voltage-gated potassium channel subunit beta-2 (Rattus norvegicus) (UniProt P62483)
# Sequence (P62483 whole entry, looked up): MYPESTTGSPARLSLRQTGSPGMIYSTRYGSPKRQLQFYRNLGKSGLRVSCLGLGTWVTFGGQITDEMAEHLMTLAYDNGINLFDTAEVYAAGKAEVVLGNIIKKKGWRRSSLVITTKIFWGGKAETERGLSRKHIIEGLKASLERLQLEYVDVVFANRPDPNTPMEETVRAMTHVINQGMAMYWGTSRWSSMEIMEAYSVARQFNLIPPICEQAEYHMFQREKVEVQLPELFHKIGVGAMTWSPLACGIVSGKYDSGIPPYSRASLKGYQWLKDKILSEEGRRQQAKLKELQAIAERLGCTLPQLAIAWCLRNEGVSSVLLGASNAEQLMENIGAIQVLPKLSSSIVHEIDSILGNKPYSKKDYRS
# PROCEDURE_SUMMARY: inhibitors of rat Kvbeta2 reductase activity – biochemical, NADPH fluorescence, primary screen (AID 622);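 also: slope of raw intensity against log time taken from 70 to 1610 s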
# CONDITION_INFO: recombinant KvBeta, 4-cyanobenzaldehyde reduction, at 10 µM, active compounds read high
For each record, write down the corresponding fluorescence slope.
Write no unit; give the number alone.

[Q] // lookup fluorescence slope | system=Voltage-gated potassium channel subunit beta-2 (Rattus norvegicus) (UniProt P62483) | key= CCOC(=O)N1CCN(C(=O)C(NS(=O)(=O)c2cccc3nsnc23)c2ccccc2)CC1 (configuration not stated)
[A] -0.599

[Q] Request body: readout fluorescence slope, system Voltage-gated potassium channel subunit beta-2 (Rattus norvegicus) (UniProt P62483), query `O=C(OCc1cc2ccccc2[nH]c1=O)c1ccncc1` . Return the value.
[A] -0.536

[Q] Missing value: fluorescence slope, Voltage-gated potassium channel subunit beta-2 (Rattus norvegicus) (UniProt P62483), entry `CC(=O)O[C@@]12CO[C@@H]1C[C@H](O)[C@@]1(C)C(=O)[C@H](O)C3=C(C)[C@@H](OC(=O)[C@H](O)[C@@H](NC(=O)OC(C)(C)C)c4ccccc4)C[C@](O)([C@@H](OC(=O)c4ccccc4)[C@H]21)C3(C)C` . Fill in?
[A] -0.48

[Q] Fill in the recorded fluorescence slope for this compound, with Voltage-gated potassium channel subunit beta-2 (Rattus norvegicus) (UniProt P62483) as test system: `CN(C(=O)c1ccccn1)c1nnc(-c2ccncc2)s1`
[A] -0.267

[Q] I'm curious: which fluorescence slope was measured for O=C(CSc1nc2c(sc3ccccc32)c(=O)n1Cc1ccco1)NCC1CCCO1 (configuration not stated) tested on Voltage-gated potassium channel subunit beta-2 (Rattus norvegicus) (UniProt P62483)?
[A] -0.58

[Q] Recorded fluorescence slope for `CCOC(=O)c1cc2sccc2n1CC(=O)Nc1ccc(OC)cc1OC` with Voltage-gated potassium channel subunit beta-2 (Rattus norvegicus) (UniProt P62483), please?
[A] -0.542

[Q] # value lookup — system Voltage-gated potassium channel subunit beta-2 (Rattus norvegicus) (UniProt P62483), readout fluorescence slope, item COc1cc2nc(N3CCN(C(=O)C4COc5ccccc5O4)CC3)nc(N)c2cc1OC (configuration not stated)
[A] -0.435

[Q] Quick check: fluorescence slope on Voltage-gated potassium channel subunit beta-2 (Rattus norvegicus) (UniProt P62483), item `COc1ccc(CNc2nc(SCC(=O)NCc3ccco3)nc3ccccc23)cc1` ?
[A] -0.484

[Q] What is its fluorescence slope for Voltage-gated potassium channel subunit beta-2 (Rattus norvegicus) (UniProt P62483)? Entry: CN1[C@@H]2CC(OC(=O)[C@H](CO)c3ccccc3)C[C@H]1[C@@H]1O[C@@H]12 (some centres not stated)
[A] -0.461

[Q] Checklist item: fluorescence slope tested on Voltage-gated potassium channel subunit beta-2 (Rattus norvegicus) (UniProt P62483), entry `COc1ccc(CCNS(=O)(=O)c2ccc3c(c2)CCN3C(=O)CCC(=O)O)cc1OC` , value?
[A] -0.553

[Q] API: value(readout= fluorescence slope, system= Voltage-gated potassium channel subunit beta-2 (Rattus norvegicus) (UniProt P62483), query= `CCn1c(=O)cc(SCC(=O)N2CCN(C3CCCCC3)CC2)c2ccccc21` )
[A] -0.565

[Q] Which measured fluorescence slope belongs to Cc1cccc(C(=O)N2CCN(C(=O)c3cccc(C)c3)C(C)C2)c1 (configuration not stated) , tested on Voltage-gated potassium channel subunit beta-2 (Rattus norvegicus) (UniProt P62483)?
[A] -0.311

[Q] Return fluorescence slope measured with Voltage-gated potassium channel subunit beta-2 (Rattus norvegicus) (UniProt P62483) given this compound: `COc1cccc(N2CCN(Cc3nc(N)nc(Nc4ccccc4OC)n3)CC2)c1`
[A] -0.562

[Q] Identify the measured fluorescence slope of `Cc1c(C(=O)O)oc2ccc(S(=O)(=O)NCc3ccccc3)cc12` for Voltage-gated potassium channel subunit beta-2 (Rattus norvegicus) (UniProt P62483).
[A] -0.432

[Q] Kindly state the measured fluorescence slope obtained for CC(C(=O)N1CCOCC1)N1c2cccc3cccc(c23)S1(=O)=O (configuration not stated) with Voltage-gated potassium channel subunit beta-2 (Rattus norvegicus) (UniProt P62483).
[A] -0.548

[Q] For the record `Cc1cc(C)cc(NS(=O)(=O)c2ccc3[nH]cc(C(=O)NCc4ccco4)c(=O)c3c2)c1` , what value of fluorescence slope is listed for Voltage-gated potassium channel subunit beta-2 (Rattus norvegicus) (UniProt P62483)?
[A] -0.57

[Q] GET /values?readout=fluorescence slope&system=Voltage-gated potassium channel subunit beta-2 (Rattus norvegicus) (UniProt P62483)&item= `Cc1noc(C)c1S(=O)(=O)Nc1c(C)n(C)n(-c2ccccc2)c1=O`
[A] -0.472

[Q] Query for Voltage-gated potassium channel subunit beta-2 (Rattus norvegicus) (UniProt P62483): what fluorescence slope does the record show for `CCCn1c2ccccc2c2nnc(SCC(=O)OCC)nc21` ?
[A] -0.536

[Q] Form field - read-out: fluorescence slope; system: Voltage-gated potassium channel subunit beta-2 (Rattus norvegicus) (UniProt P62483); submitted item: CC1CN(c2nc3ccccn3c(=O)c2/C=C(\C#N)S(=O)(=O)c2ccccc2)CC(C)O1 (configuration not stated)
[A] -0.513

[Q] Requested read-out fluorescence slope, target or system Voltage-gated potassium channel subunit beta-2 (Rattus norvegicus) (UniProt P62483), entry `O=C(/C=N/O)Nc1cccnc1`
[A] -0.552

[Q] Param readout= fluorescence slope; system= Voltage-gated potassium channel subunit beta-2 (Rattus norvegicus) (UniProt P62483); entry= `Clc1ccc(-c2nnc3sc(-c4ccc(Br)o4)nn23)cc1` ; returns value.
[A] -0.346

[Q] API: value(readout= fluorescence slope, system= Voltage-gated potassium channel subunit beta-2 (Rattus norvegicus) (UniProt P62483), query= `Cn1c(=O)oc2cc(S(=O)(=O)NCCC(=O)N3CCc4ccccc4C3)ccc21` )
[A] -0.514

[Q] Request: fluorescence slope, test system Voltage-gated potassium channel subunit beta-2 (Rattus norvegicus) (UniProt P62483), entry `CCOC(=O)N1CCC(O)(c2cc(C)c(C)cc2C)CC1`
[A] -0.316

[Q] Hi! What's the reported fluorescence slope for `Cc1ccc(S(=O)(=O)N(C)CC(=O)NC2CC(C)(C)NC(C)(C)C2)cc1` on Voltage-gated potassium channel subunit beta-2 (Rattus norvegicus) (UniProt P62483)?
[A] -0.555

[Q] # returns recorded fluorescence slope (system: Voltage-gated potassium channel subunit beta-2 (Rattus norvegicus) (UniProt P62483)) for CC1CN(CC(O)COc2ccc(C(C)C)cc2)CC(C)O1 (configuration not stated)
[A] -0.534

[Q] Tell me reported fluorescence slope for `CCc1nccn1S(=O)(=O)c1ccc2ccc(C)cc2c1` , tested with Voltage-gated potassium channel subunit beta-2 (Rattus norvegicus) (UniProt P62483).
[A] -0.512

[Q] // fetch Voltage-gated potassium channel subunit beta-2 (Rattus norvegicus) (UniProt P62483) fluorescence slope for COC(=O)c1cccc(NC(=O)NC2CCCN2S(=O)(=O)c2ccc(Cl)cc2)c1 (configuration not stated)
[A] -0.392

[Q] Request body: readout fluorescence slope, system Voltage-gated potassium channel subunit beta-2 (Rattus norvegicus) (UniProt P62483), query `Cc1ccc(-n2c(=O)c3sccc3n(CC(=O)NCc3ccco3)c2=O)cc1` . Return the value.
[A] -0.579

[Q] Quick check: fluorescence slope on Voltage-gated potassium channel subunit beta-2 (Rattus norvegicus) (UniProt P62483), item `CNC(=O)c1c(O)c2cccc3c2n(c1=O)CC3` ?
[A] -0.545

[Q] I'm curious: which fluorescence slope was measured for `Cc1ccc(S(=O)(=O)Cc2ccc(C(=O)NCc3ccc4c(c3)OCO4)o2)cc1` tested on Voltage-gated potassium channel subunit beta-2 (Rattus norvegicus) (UniProt P62483)?
[A] -0.454

[Q] Param readout= fluorescence slope; system= Voltage-gated potassium channel subunit beta-2 (Rattus norvegicus) (UniProt P62483); entry= COc1ccc(N2C(=O)C3CCCN3C2c2ccc(F)cc2)cc1Cl (configuration not stated) ; returns value.
[A] -0.538

[Q] Query for Voltage-gated potassium channel subunit beta-2 (Rattus norvegicus) (UniProt P62483): what fluorescence slope does the record show for O=C(CSC1=NC(=O)C(Cc2ccccc2)C(=O)N1)NC1CCCCC1 (configuration not stated) ?
[A] -0.558

[Q] Recorded fluorescence slope for Cc1ccc(NC(=O)C2CCCN2C(=O)Oc2ccccc2)cc1 (configuration not stated) with Voltage-gated potassium channel subunit beta-2 (Rattus norvegicus) (UniProt P62483), please?
[A] -0.41

[Q] Item: `Cc1ccc2nc(NC(=O)C3CCN(S(=O)(=O)c4cccc5nsnc45)CC3)sc2c1` Test system: Voltage-gated potassium channel subunit beta-2 (Rattus norvegicus) (UniProt P62483) Read-out: fluorescence slope Value: ?
[A] -0.414

[Q] Lab note: need fluorescence slope with Voltage-gated potassium channel subunit beta-2 (Rattus norvegicus) (UniProt P62483) for entry `COc1ccc(C(C)(C)C)cc1NC(=O)Nc1ccc2c(c1)OCO2` , please look it up.
[A] -0.577

[Q] Record `CCOC(=O)COc1ccc(S(=O)(=O)Nc2ccc3c(c2)OCO3)cc1` : what is its fluorescence slope with Voltage-gated potassium channel subunit beta-2 (Rattus norvegicus) (UniProt P62483)?
[A] -0.588

[Q] Record `CC(=O)Oc1ccc(C(c2ccc(OC(C)=O)cc2)c2ccccn2)cc1` : what is its fluorescence slope with Voltage-gated potassium channel subunit beta-2 (Rattus norvegicus) (UniProt P62483)?
[A] -0.45

[Q] Hi! What's the reported fluorescence slope for `O=C(O)COc1ccc2occ(C(=O)c3ccccc3)c2c1` on Voltage-gated potassium channel subunit beta-2 (Rattus norvegicus) (UniProt P62483)?
[A] -0.592

[Q] Fill in the recorded fluorescence slope for this compound, with Voltage-gated potassium channel subunit beta-2 (Rattus norvegicus) (UniProt P62483) as test system: `COc1ccc(-c2nc(N)nc(C)c2Oc2ccccc2Br)c(O)c1`
[A] -0.496

[Q] GET /values?readout=fluorescence slope&system=Voltage-gated potassium channel subunit beta-2 (Rattus norvegicus) (UniProt P62483)&item= O=C(NCc1ccco1)c1cc2n(n1)C(C(F)(F)F)CC(c1ccc(F)cc1)N2 (configuration not stated)
[A] -0.557

[Q] Find the measured fluorescence slope: item CC(C)(C)C1CCc2onc(C(=O)Nc3cnn(Cc4ccc(F)cc4)c3)c2C1 (configuration not stated) , target or system Voltage-gated potassium channel subunit beta-2 (Rattus norvegicus) (UniProt P62483).
[A] -0.58

[Q] Which fluorescence slope is reported with Voltage-gated potassium channel subunit beta-2 (Rattus norvegicus) (UniProt P62483) for this entry: `CCCCC(=O)Nc1nn(CCC)c2nc3ccccc3cc12` ?
[A] -0.568
